Test system: RAW264.7
method: Antiinflammatory activity in mouse RAW264.7 cells assessed as inhibition of LPS-induced IL-6 production after 2 hrs by ELISA
Assay type: functional, cell-based
condition-details: RAW264.7, 2 h
As shown below, each of these compounds has a reported IC50 value.
I only need the number, in nM, no unit after it.

[[record]]
chemical_structure = "CCOc1ccc(Br)cc1/C=C/C(=O)/C=C/c1cc(Br)ccc1OCC"
experimental_value = 3640


Briefly, IC50 measured for `CCN(CC)c1ccc(/C=C2\CC/C(=C\c3ccc(N(CC)CC)cc3)C2=O)cc1` : 1070

====

System: RAW264.7
method: Antiinflammatory activity in mouse RAW264.7 cells assessed as inhibition of LPS-induced TNF alpha production at 10 uM after 2 hrs by ELISA
Assay type: functional
condition-details: RAW264.7, 2 h
As shown below, each of these compounds has a reported inhibition at 10 µM value.
I only need the number, in %, no unit after it.

The following compounds have reported results that may help.
[[record]]
chemical_structure = "Cc1cc(N(CCCl)CCCl)ccc1/C=C/C(=O)/C=C/c1ccc(N(CCCl)CCCl)cc1C"
study_target = "RAW264.7"
assay_endpoint = "inhibition at 10 µM"
experimental_value = 20

[[record]]
chemical_structure = "O=C1/C(=C/c2ccc(N3CCCCC3)cc2)CC/C1=C\\c1ccc(N2CCCCC2)cc1"
study_target = "RAW264.7"
assay_endpoint = "inhibition at 10 µM"
experimental_value = 20

[[record]]
chemical_structure = "COc1ccc(/C=C2\\CC/C(=C\\c3ccc(OC)cc3F)C2=O)c(F)c1"
study_target = "RAW264.7"
assay_endpoint = "inhibition at 10 µM"
experimental_value = 20

[[record]]
chemical_structure = "O=C1/C(=C/c2ccc(C(F)(F)F)cc2C(F)(F)F)CCC/C1=C\\c1ccc(C(F)(F)F)cc1C(F)(F)F"
study_target = "RAW264.7"
assay_endpoint = "inhibition at 10 µM"
experimental_value = 20

[[record]]
chemical_structure = "CCN(CC)c1ccc(/C=C2\\CC/C(=C\\c3ccc(N(CC)CC)cc3)C2=O)cc1"
study_target = "RAW264.7"
assay_endpoint = "inhibition at 10 µM"
experimental_value = 67.5

[[record]]
chemical_structure = "COc1cc(/C=C/C(=O)CC(=O)/C=C/c2ccc(O)c(OC)c2)ccc1O"
study_target = "RAW264.7"
assay_endpoint = "inhibition at 10 µM"
experimental_value = 35.6

[[record]]
chemical_structure = "COc1ccc(/C=C/C(=O)/C=C/c2ccc(OC)cc2F)c(F)c1"
study_target = "RAW264.7"
assay_endpoint = "inhibition at 10 µM"
experimental_value = 20


Briefly, inhibition at 10 µM measured for `COc1ccc(F)c(/C=C2\CCC/C(=C\c3cc(OC)ccc3F)C2=O)c1` : 20
